# system: JAK2 (Homo sapiens, UniProt O60674)
# Sequence (O60674 whole entry): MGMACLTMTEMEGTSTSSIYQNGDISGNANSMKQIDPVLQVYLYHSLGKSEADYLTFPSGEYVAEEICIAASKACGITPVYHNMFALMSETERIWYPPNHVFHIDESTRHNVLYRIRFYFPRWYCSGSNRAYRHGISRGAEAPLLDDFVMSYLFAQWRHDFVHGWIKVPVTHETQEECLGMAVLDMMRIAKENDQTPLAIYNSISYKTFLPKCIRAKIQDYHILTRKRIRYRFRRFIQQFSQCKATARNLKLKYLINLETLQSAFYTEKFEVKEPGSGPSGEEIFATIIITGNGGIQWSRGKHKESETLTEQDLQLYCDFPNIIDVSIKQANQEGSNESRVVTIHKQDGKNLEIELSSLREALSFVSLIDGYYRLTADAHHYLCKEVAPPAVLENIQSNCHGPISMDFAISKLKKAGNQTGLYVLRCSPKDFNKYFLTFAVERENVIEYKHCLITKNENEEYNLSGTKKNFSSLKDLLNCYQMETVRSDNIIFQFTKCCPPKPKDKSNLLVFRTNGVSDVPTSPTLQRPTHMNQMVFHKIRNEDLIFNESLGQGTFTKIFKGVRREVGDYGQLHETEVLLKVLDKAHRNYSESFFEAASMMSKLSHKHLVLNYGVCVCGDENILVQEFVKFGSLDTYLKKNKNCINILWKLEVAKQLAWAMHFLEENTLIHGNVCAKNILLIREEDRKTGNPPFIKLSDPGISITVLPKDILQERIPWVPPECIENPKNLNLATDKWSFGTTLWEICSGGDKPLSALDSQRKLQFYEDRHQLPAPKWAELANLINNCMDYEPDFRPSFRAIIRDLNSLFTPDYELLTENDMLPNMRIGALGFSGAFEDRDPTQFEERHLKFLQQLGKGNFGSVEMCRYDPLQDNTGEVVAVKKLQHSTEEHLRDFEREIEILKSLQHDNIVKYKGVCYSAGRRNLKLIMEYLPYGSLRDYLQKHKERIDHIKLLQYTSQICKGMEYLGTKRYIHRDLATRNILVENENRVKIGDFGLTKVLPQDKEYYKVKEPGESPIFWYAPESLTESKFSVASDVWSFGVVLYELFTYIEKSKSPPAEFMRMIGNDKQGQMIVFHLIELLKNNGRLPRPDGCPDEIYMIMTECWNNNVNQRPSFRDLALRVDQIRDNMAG
# test-details: JAK2 inhibition assay (as Example 3 with JAK-2 enzyme)
# Type: biochemical
# conditions-used: enzyme inhibition, Table 5
Each entry below carries its reported Ki.

Take a look at these entries with their results.
>>> observed_value("CN(CC(O)c1ccccc1)c1cccc(-c2ccnc3[nH]ccc23)n1 (stereo not drawn)")
"< 0.5 µM"
>>> observed_value("CN1CCN(Cc2cccc(-c3ccnc4[nH]ccc34)c2)CC1")
"0.5 to 5 µM"
>>> observed_value("C1=C(c2ccnc3[nH]ccc23)CCCC1 [compound 30, 4-Cyclohexenyl-1H-pyrrolo[2,3b]pyridine]")
"< 0.5 µM"
>>> observed_value("CC(C)(C(=O)CC#N)c1cccc(-c2ccnc3[nH]ccc23)n1")
"< 0.5 µM"
>>> observed_value("CC1CCCN(c2cccc(-c3ccnc4[nH]ccc34)n2)C1 (stereo not drawn)")
"< 0.5 µM"

Ki for `CN(C)Cc1cccc(-c2ccnc3[nH]ccc23)c1` ?
0.5 to 5 µM

Ki for `CC(=O)N1CCN(c2cccc(-c3ccnc4[nH]ccc34)n2)CC1` ?
0.5 to 5 µM

Ki for `Cn1cc(-c2ccnc3[nH]ccc23)cn1` ?
< 0.5 µM

Ki for `c1ccc(COc2cccc(-c3ccnc4[nH]ccc34)c2)cc1` ?
0.5 to 5 µM
